Target: UniProtKB Q9UK32
Sequence (Q9UK32 whole entry, looked up): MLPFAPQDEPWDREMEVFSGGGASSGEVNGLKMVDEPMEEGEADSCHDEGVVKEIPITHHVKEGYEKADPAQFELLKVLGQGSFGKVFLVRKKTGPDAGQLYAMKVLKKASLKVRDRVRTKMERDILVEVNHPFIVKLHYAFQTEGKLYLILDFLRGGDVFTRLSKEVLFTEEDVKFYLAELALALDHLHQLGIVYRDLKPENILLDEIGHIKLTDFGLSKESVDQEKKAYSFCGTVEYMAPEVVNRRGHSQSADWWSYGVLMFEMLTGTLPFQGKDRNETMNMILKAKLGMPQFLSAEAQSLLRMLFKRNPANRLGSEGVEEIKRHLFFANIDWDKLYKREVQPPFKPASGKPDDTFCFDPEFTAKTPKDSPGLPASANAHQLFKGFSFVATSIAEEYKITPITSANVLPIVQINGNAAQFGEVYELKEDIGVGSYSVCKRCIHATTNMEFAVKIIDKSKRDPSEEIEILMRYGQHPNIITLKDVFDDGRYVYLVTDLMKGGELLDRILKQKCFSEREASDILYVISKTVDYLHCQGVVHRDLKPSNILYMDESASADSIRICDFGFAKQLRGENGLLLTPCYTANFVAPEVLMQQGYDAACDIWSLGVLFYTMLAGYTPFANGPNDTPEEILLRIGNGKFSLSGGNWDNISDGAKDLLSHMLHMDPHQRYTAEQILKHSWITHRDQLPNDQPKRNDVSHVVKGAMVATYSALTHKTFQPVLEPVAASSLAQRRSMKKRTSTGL
Test: radiometric filter-binding kinase assay, Kinase HotSpot
Details: compound 0.5 µM; ATP 10 µM
Where residual activity equals or exceeds 90%, the correct label is True; where it does not, the label is False.

Quick check, residual activity >= 90%? COc1ccc(OC)c2c(=S)c3ccccc3[nH]c12
False

Quick check, residual activity >= 90%? Nc1nnc2[nH]c3ccccc3nc1-2
True

Quick check, residual activity >= 90%? Nc1nccc(-c2c(-c3ccc(F)cc3)ncn2C2CCNCC2)n1
True

Quick check, residual activity >= 90%? COc1cc2ncc(-c3ccccc3)nc2cc1OC
True

Quick check, residual activity >= 90%? CN([C@@H](Cc1ccc(OS(=O)(=O)c2cccc3cnccc23)cc1)C(=O)N1CCN(c2ccccc2)CC1)S(=O)(=O)c1cccc2cnccc12
True

Quick check, residual activity >= 90%? Oc1ccc(Nc2nc(-c3ccc(Cl)cc3)cs2)cc1
True

Quick check, residual activity >= 90%? CN(C)C[C@H]1CCn2c(c(C3=C(c4cn(C)c5ccccc45)C(=O)NC3=O)c3ccccc32)C1
False

Quick check, residual activity >= 90%? CCN(CC)CCCCN1c2ccccc2Oc2ccc(Cl)cc21
True

Quick check, residual activity >= 90%? COc1ccc(CNC(=O)Nc2ncc([N+](=O)[O-])s2)cc1
True

Quick check, residual activity >= 90%? CCn1cnc2c(Nc3cccc(Cl)c3)nc(N[C@@H]3CCCC[C@@H]3N)nc21
False
